Where do these numbers come from? They come from patent US20220088148A1.

- tgt: human GLP-1 receptor (human, UniProt P43220 24-463)
- assay_protocol: cell-based or functional assay
Bridges are numbered along the chain shown (N, C = ends). Where no end group is shown, it is not given here. [ ]: non-standard residue; d: D form. Aib = CC(C)(N)C(=O)O
Give In vitro activity (%) vs. GLP-1, cAMP EC50 for every item shown.
Answers are plain numbers, in %.

These solved cases illustrate the format of a correct answer.
Given the entry Y[Aib]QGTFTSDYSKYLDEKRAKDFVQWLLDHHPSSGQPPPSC (bridge 16-20) [triple agonist of SEQ ID NO: 76] , report its measured In vitro activity (%) vs. GLP-1, cAMP EC50.
10.3

Given the entry H[Aib]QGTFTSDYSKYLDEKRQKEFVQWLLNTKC (bridge 16-20; ends not checked) [triple agonist of SEQ ID NO: 58] , report its measured In vitro activity (%) vs. GLP-1, cAMP EC50.
39.1

Given the entry H[Aib]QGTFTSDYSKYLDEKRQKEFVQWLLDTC (bridge 16-20; ends not checked) [triple agonist of SEQ ID NO: 52] , report its measured In vitro activity (%) vs. GLP-1, cAMP EC50.
44.1

Please look at the items below and tell me In vitro activity (%) vs. GLP-1, cAMP EC50 for each one, in order.
1. H[Aib]QGTFTSDVSSYLDGQAAKEFVAWLLKGC (ends and bridges not checked) [triple agonist of SEQ ID NO: 6]
2. Y[Aib]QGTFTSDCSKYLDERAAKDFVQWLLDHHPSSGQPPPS (bridge 16-20; ends not checked) [triple agonist of SEQ ID NO: 72]

1: 17; 2: 11.5
